- Tested System: human Siglec-7 on primary human monocyte-derived dendritic cells (human, UniProt Q9Y286 19-467)
- Sequence (Q9Y286 19-467): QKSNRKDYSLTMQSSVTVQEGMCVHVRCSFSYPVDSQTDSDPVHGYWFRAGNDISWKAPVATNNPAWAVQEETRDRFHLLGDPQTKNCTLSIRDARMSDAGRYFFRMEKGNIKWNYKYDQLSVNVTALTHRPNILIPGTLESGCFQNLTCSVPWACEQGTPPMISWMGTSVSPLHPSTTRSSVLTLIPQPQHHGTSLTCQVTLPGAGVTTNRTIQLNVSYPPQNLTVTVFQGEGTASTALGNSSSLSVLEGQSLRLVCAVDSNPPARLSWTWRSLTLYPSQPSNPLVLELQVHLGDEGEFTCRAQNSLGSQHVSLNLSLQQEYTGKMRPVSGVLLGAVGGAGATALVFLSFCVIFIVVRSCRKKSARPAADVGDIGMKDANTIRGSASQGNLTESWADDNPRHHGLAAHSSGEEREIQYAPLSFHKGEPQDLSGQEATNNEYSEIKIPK
- Test Summary: cell-based or functional assay
// Maximal downregulation (% Siglec-7 remaining) lookup, one value per entry
Reported Property: Maximal downregulation (% Siglec-7 remaining) (%)

Binder	Measured
S7AB-H8.37 (antibody, V domains shown) VH: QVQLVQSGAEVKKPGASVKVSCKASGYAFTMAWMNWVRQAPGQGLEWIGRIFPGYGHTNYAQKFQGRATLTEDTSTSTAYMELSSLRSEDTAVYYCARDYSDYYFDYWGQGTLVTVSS VL: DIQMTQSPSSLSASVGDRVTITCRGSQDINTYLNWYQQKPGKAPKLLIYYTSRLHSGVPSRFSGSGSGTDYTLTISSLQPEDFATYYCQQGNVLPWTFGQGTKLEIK	3.4
S7AB-H8.14 (antibody, V domains shown) VH: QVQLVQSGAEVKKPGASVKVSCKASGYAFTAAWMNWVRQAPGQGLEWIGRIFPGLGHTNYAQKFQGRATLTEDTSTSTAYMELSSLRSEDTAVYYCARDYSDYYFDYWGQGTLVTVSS VL: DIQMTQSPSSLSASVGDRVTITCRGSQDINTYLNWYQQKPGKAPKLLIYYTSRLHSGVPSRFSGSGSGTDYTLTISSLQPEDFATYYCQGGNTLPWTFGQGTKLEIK	45.7

Values were extracted from patent US20210246204A1.
